- System: A549 epithelial cells
- test-summary: Human Operon arrays (PRHU04-S1) of A549 cells treated with peptide alone (Tables 31-37, 53)
- test-parameters: A549 cells, peptide 50 μg/ml, 4 h, Table 36
No end group written: not given here.
assay-metric: X58467 cytochrome P450, expression Ratio ID#:ctrl
Give the figure by itself; no unit, no explanation.

Example entries and their recorded answers appear below.
KQKLFAKMLMSALKKKTLVTTPLAGK [ID 45]    3.4
KTKKFAKMLMMALKKVVSTAKPLAILS [ID 42]    4.7
KNKAFAKMLMKALKKVTTAAKPLTG [ID 44]    34.4
KCKLFKKMLMLALKKVLTTGLPALKLTK [ID 40]    15.4

// assay A549 epithelial cells, entry KMKSFAKMLMLALKKVLKVLTTALTLKAGLPS [ID 43] , X58467 cytochrome P450, expression Ratio ID#:ctrl value = 7.9
